Assign pIC50 to each entry below.
- TEST TARGET: P2X7 (UniProt Q99572)
- Sequence (Q99572 1-595): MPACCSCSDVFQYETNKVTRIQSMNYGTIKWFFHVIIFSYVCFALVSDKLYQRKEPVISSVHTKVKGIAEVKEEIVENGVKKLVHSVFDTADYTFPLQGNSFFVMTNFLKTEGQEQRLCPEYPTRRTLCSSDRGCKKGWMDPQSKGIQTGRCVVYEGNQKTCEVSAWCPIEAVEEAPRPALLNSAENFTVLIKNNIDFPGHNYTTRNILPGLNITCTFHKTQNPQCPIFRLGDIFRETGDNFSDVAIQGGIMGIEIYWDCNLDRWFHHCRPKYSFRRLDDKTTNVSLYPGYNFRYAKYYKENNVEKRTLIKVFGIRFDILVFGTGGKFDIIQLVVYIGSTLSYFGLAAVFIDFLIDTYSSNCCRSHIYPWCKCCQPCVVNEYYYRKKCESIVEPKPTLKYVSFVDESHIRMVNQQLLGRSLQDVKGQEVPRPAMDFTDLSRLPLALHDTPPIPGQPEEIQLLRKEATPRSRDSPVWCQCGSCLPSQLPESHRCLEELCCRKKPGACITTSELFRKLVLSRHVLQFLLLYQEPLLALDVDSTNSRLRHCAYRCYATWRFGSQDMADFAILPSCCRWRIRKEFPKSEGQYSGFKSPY
- ASSAY COMMENT: pIC50 values for P2X7 (Table 1)
- Assay type: cell-based
Give bare numbers.

Some solved entries appear below for comparison.
COMPOUND	REPORTED VALUE
O=C1C=CN(C(=O)Nc2c(F)cccc2F)C(c2ccc(F)cc2)C1 (stereo not shown)	5.51
COc1ccc(S(C)(=O)=O)cc1NC(=O)N1C=CC(=O)CC1c1ccc(F)cc1 (stereo not shown)	5.11
Cc1c(CCO)cccc1NC(=O)N1C=CC(=O)C[C@H]1c1ccc(F)cc1	7.835

Could you now look at the following compound, please?
Endpoint output: pIC50 of COc1ccc(NC(=O)N2C=CC(=O)C[C@H]2c2ccc(F)cc2)c(Br)c1 . Value?
7.45

* * *

- TEST TARGET: P2X7 (UniProt Q99572)
- Sequence (Q99572 1-595): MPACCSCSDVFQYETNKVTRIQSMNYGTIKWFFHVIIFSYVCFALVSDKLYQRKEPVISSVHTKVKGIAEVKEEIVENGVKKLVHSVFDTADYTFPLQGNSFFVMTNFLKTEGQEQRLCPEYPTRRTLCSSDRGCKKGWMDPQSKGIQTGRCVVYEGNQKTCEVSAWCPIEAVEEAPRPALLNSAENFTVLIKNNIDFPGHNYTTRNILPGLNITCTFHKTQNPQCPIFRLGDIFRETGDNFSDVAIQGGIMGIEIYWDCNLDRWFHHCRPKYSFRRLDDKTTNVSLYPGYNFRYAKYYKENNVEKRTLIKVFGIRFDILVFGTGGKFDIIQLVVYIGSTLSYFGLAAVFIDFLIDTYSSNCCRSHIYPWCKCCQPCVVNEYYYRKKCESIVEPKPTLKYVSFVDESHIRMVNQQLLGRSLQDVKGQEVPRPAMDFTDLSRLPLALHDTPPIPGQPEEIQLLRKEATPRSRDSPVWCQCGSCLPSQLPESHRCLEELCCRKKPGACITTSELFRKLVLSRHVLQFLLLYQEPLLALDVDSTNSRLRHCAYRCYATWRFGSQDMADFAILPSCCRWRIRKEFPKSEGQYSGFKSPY
- ASSAY COMMENT: pIC50 values for P2X7 (Table 1)
- Type: cell-based
QUANTITY MEASURED: pIC50
One number for each entry.

Some solved entries appear below for comparison.
MOLECULE	pIC50
COc1cccc(NC(=O)N2C=CC(=O)C[C@H]2c2ccc(F)cc2)c1C [Compound 132]	8.57
COc1cc(NC(=O)N2C=CC(=O)C[C@H]2c2ccc(F)cc2)ccc1F [Compound 76]	6.76
COc1ccc(OC)c(NC(=O)N2C=CC(=O)CC2c2ccc(F)cc2)c1 (centres unmarked) [Compound 65]	6.23
Cc1cc2ccn(C)c2cc1NC(=O)N1C=CC(=O)C[C@H]1c1ccc(F)cc1 [Compound 140]	8.565
Cc1c2ccc(NC(=O)N3C=CC(=O)C[C@H]3c3ccc(F)cc3)c(Br)c2nn1C [Compound 151]	5.975

Hi, could you look up pIC50 for each item in my list?
1. COc1cc(Br)c(NC(=O)N2C=CC(=O)C[C@H]2c2ccc(F)cc2)cc1OC [Compound 3]
2. COc1cc(NC(=O)N2C=CC(=O)C[C@H]2c2cccc(F)c2)ccc1C [Compound 70]
3. O=C1C=CN(C(=O)Nc2cc(OCCO)c(Cl)cc2Br)[C@H](c2ccc(F)cc2)C1 [Compound 40]
4. Cn1cc2ccc(NC(=O)N3C=CC(=O)C[C@H]3c3cccc(F)c3)cc2n1 [Compound 147]
5. Cc1cc(Cl)c(CN2CCOCC2)cc1NC(=O)N1C=CC(=O)C[C@H]1c1ccc(F)cc1 [Compound 129]
6. Cc1c(Cl)cccc1NC(=O)N1C=CC(=O)C[C@H]1c1ccc(F)cc1 [Compound 138]

8.055
6.84
7.607
5.505
6.945
8.34

Hi, could you look up pIC50 for each item in my list?
1. COc1cccc(NC(=O)N2C=CC(=O)CC2c2ccc(F)cc2)c1C (centres unmarked) [Compound 109]
2. COc1cc(NC(=O)N2C=CC(=O)C[C@H]2c2ccc(F)cc2)c(Br)cc1F [Compound 6]
3. COc1cc(NC(=O)N2C=CC(=O)CC2c2cccnc2)c(Br)cc1C (centres unmarked) [Compound 20]
4. COc1cc(NC(=O)N2C=CC(=O)C[C@H]2c2ccc(F)cc2)c(Cl)cc1Cl [Compound 7]
5. Cc1ccc(S(=O)(=O)n2nc(C)c3cc(Br)c(NC(=O)N4C=CC(=O)C[C@H]4c4ccc(F)cc4)cc32)cc1 [Compound 23]

1. 8.433
2. 7.5
3. 5.995
4. 6.73
5. 5.245

Requested read-out pIC50, target or system P2X7 (UniProt Q99572), entry O=C1C=CN(C(=O)Nc2ccsc2Br)C(c2ccc(F)cc2)C1 (centres unmarked) [Compound 86]
6.725
